experiment.notes: Inhibition of HCV subtype 3a NS3/4A protease incubated for 30 mins by time-resolved fluorescence assay
Parameters: species or system Hepatitis C virus subtype 3a
pKi: −log10 of the molar value.
Each item that follows carries a reported pKi.
outcome.measure: pKi

| cpd.smiles | data.value |
| --- | --- |
| C=C[C@@H]1C[C@]1(NC(=O)[C@@H]1C[C@@H]2CN1C(=O)[C@H](C1CCCCC1)NC(=O)O[C@@H]1CCCC[C@H]1C/C=C/c1cc3c(cc(OCC)nc3cc1OC)O2)C(=O)NS(=O)(=O)C1CC1 | 7.90 |
| C=C[C@@H]1C[C@]1(NC(=O)[C@@H]1C[C@@H]2CN1C(=O)[C@H](C1CCCCC1)NC(=O)N1CCC(CC1)OCCC/C=C/c1cc3c(cc(OCC)nc3cc1OC)O2)C(=O)NS(=O)(=O)C1CC1 | 8.68 |
| C=C[C@@H]1C[C@]1(NC(=O)[C@@H]1C[C@@H]2CN1C(=O)[C@H](C1CCCCC1)NC(=O)N1CC(C1)OCCC/C=C/c1cc3c(cc(OCC)nc3cc1OC)O2)C(=O)NS(=O)(=O)C1CC1 | 9.05 |
| C=C[C@@H]1C[C@]1(NC(=O)[C@@H]1C[C@@H]2CN1C(=O)[C@H](C1CCCC1)NC(=O)O[C@@H]1COC[C@H]1CCC/C=C/c1cc3ccc(OC)cc3nc1O2)C(=O)NS(=O)(=O)C1CC1 | 8.24 |
| C=C[C@@H]1C[C@]1(NC(=O)[C@@H]1C[C@@H]2CN1C(=O)[C@H](C1CCCC1)NC(=O)O[C@@H]1CCC[C@H]1CCC/C=C/c1cc3ccc(OC)cc3nc1O2)C(=O)NS(=O)(=O)C1CC1 | 7.94 |

---

experimental.system: Genome polyprotein (Hepacivirus C, UniProt K7XJL6, A156V)
experiment.notes: Inhibition of HCV genotype 1b BK NS3/4A protease A156V mutant expressed in Escherichia coli incubated for 30 mins by time-resolved fluorescence assay
Measured Ki of individual entries

| cpd.smiles | Ki, nM |
| --- | --- |
| C=C[C@@H]1C[C@]1(NC(=O)[C@@H]1C[C@@H]2CN1C(=O)[C@H](C1CCCC1)NC(=O)O[C@@H]1CCC[C@H]1C/C=C/c1cc3c(cc(OCC)nc3cc1OC)O2)C(=O)NS(=O)(=O)C1CC1 | 15 |
| C=C[C@@H]1C[C@]1(NC(=O)[C@@H]1C[C@@H]2CN1C(=O)[C@H](C1CCCCC1)NC(=O)O[C@@H]1CCC[C@H]1C/C=C/c1cc3c(cc(OCC)nc3cc1OC)O2)C(=O)NS(=O)(=O)C1CC1 | 40 |
| C=C[C@@H]1C[C@]1(NC(=O)[C@@H]1C[C@@H]2CN1C(=O)[C@H](C1CCCCC1)NC(=O)N1CC[C@H](C1)OC/C=C/c1cc3c(cc(OCC)nc3cc1OC)O2)C(=O)NS(=O)(=O)C1CC1 | 134 |

---

Here the recorded concentration at 4 h is given for each entry.
experiment.notes: Drug level in Sprague-Dawley rat liver at 5 mg/kg, po measured 4 hrs post dose by LC/MS method
Format: ADME, organism-based
Set-up: dose 5 mg/kg, route oral
experimental.context: read-out: Drug uptake
outcome.measure: concentration at 4 h

| cpd.smiles | outcome.measure | data.value |
| --- | --- | --- |
| C=C[C@@H]1C[C@]1(NC(=O)[C@@H]1C[C@@H]2CN1C(=O)[C@H](C1CCCC1)NC(=O)N(C)[C@@H]1CCC[C@H]1C/C=C/c1cc3c(cc(OCC)nc3cc1OC)O2)C(=O)NS(=O)(=O)C1CC1 | concentration at 4 h | 15.9 µM |
| C=C[C@@H]1C[C@]1(NC(=O)[C@@H]1C[C@@H]2CN1C(=O)[C@H](C1CCCC1)NC(=O)O[C@@H]1CCC[C@H]1CCC/C=C/c1cc3ccc(OC)cc3nc1O2)C(=O)NS(=O)(=O)C1CC1 | concentration at 4 h | 30.8 µM |
| C=C[C@@H]1C[C@]1(NC(=O)[C@@H]1C[C@@H]2CN1C(=O)[C@H](C1CCCC1)NC(=O)N1CC[C@@H](C1)OCCCCCc1cc3ccc(OC)cc3nc1O2)C(=O)NS(=O)(=O)C1CC1 | concentration at 4 h | 12 µM |

---

experimental.system: Genome polyprotein (Hepacivirus C, UniProt K7XJL6, A156V)
experiment.notes: Inhibition of HCV genotype 1b BK NS3/4A protease A156V mutant expressed in Escherichia coli incubated for 30 mins by time-resolved fluorescence assay
Below: a set of entries, each annotated with reported Ki.
outcome.measure: Ki (nM)

| cpd.smiles | outcome.measure | unit.annotation | data.value |
| --- | --- | --- | --- |
| C=C[C@@H]1C[C@]1(NC(=O)[C@@H]1C[C@@H]2CN1C(=O)[C@H](C1CCCC1)NC(=O)N1CC[C@@H](C1)OCCC/C=C/c1cc3ccc(OC)cc3nc1O2)C(=O)NS(=O)(=O)C1CC1 | Ki | nM | 37 |
| C=C[C@@H]1C[C@]1(NC(=O)[C@@H]1C[C@@H]2CN1C(=O)[C@H](C1CCCCC1)NC(=O)O[C@@H]1COC[C@H]1C/C=C/c1cc3c(cc(OCC)nc3cc1OC)O2)C(=O)NS(=O)(=O)C1CC1 | Ki | nM | 23 |
| C=C[C@@H]1C[C@]1(NC(=O)[C@@H]1C[C@@H]2CN1C(=O)[C@H](C1CCCCC1)NC(=O)N1CCC(CC1)OCCC/C=C/c1cc3c(cc(OCC)nc3cc1OC)O2)C(=O)NS(=O)(=O)C1CC1 | Ki | nM | 18 |
| C=C[C@@H]1C[C@]1(NC(=O)[C@@H]1C[C@@H]2CN1C(=O)[C@H](C1CCCCC1)NC(=O)N1CCC[C@@H](C1)OCCCc1cc3c(cc(OCC)nc3cc1OC)O2)C(=O)NS(=O)(=O)C1CC1 | Ki | nM | 46 |

---

experimental.system: Genome polyprotein (Hepacivirus C, UniProt K7XJL6, A156T)
experiment.notes: Inhibition of HCV genotype 1b BK NS3/4A protease A156T mutant expressed in Escherichia coli incubated for 30 mins by time-resolved fluorescence assay

| molecule | Ki / nM |
| --- | --- |
| C=C[C@@H]1C[C@]1(NC(=O)[C@@H]1C[C@@H]2CN1C(=O)[C@H](C1CCCCC1)NC(=O)O[C@@H]1CCCC[C@H]1C/C=C/c1cc3c(cc(OCC)nc3cc1OC)O2)C(=O)NS(=O)(=O)C1CC1 | 42 |
| C=C[C@@H]1C[C@]1(NC(=O)[C@@H]1C[C@@H]2CN1C(=O)[C@H](C1CCCC1)NC(=O)OC1CCC1C/C=C/c1cc3c(cc(OCC)nc3cc1OC)O2)C(=O)NS(=O)(=O)C1CC1 (mixture of isomers) | 52 |
| C=C[C@@H]1C[C@]1(NC(=O)[C@@H]1C[C@@H]2CN1C(=O)[C@H](C1CCCC1)NC(=O)N1CC(OCC)(CCCCc3cc4c(cc(OCC)nc4cc3OC)O2)C1)C(=O)NS(=O)(=O)C1CC1 | 7.1 |
| C=C[C@@H]1C[C@]1(NC(=O)[C@@H]1C[C@@H]2CN1C(=O)[C@H](C1CCCC1)NC(=O)N1CC[C@@H](C1)OCCC/C=C/c1cc3ccc(OC)cc3nc1O2)C(=O)NS(=O)(=O)C1CC1 | 2.9 |
| C=C[C@@H]1C[C@]1(NC(=O)[C@@H]1C[C@@H]2CN1C(=O)[C@H](C1CCCCC1)NC(=O)O[C@@H]1CCC[C@H]1C/C=C/c1cc3c(cc(OCC)nc3cc1OC)O2)C(=O)NS(=O)(=O)C1CC1 | 2 |
| C=C[C@@H]1C[C@]1(NC(=O)[C@@H]1C[C@@H]2CN1C(=O)[C@H](C1CCCC1)NC(=O)N(C)[C@@H]1CCC[C@H]1C/C=C/c1cc3c(cc(OCC)nc3cc1OC)O2)C(=O)NS(=O)(=O)C1CC1 | 1.7 |
| C=C[C@@H]1C[C@]1(NC(=O)[C@@H]1C[C@@H]2CN1C(=O)[C@H](C1CCCC1)NC(=O)O[C@@H]1CCC[C@H]1C/C=C/c1cc3c(cc(OCC)nc3cc1OC)O2)C(=O)NS(=O)(=O)C1CC1 | 0.8 |
| C=C[C@@H]1C[C@]1(NC(=O)[C@@H]1C[C@@H]2CN1C(=O)[C@H](C1CCCC1)NC(=O)N1CC[C@@H](C1)OCCCCCc1cc3ccc(OC)cc3nc1O2)C(=O)NS(=O)(=O)C1CC1 | 1.5 |
| C=C[C@@H]1C[C@]1(NC(=O)[C@@H]1C[C@@H]2CN1C(=O)[C@H](C1CCCCC1)NC(=O)N1CCC(CC1)OCCC/C=C/c1cc3c(cc(OCC)nc3cc1OC)O2)C(=O)NS(=O)(=O)C1CC1 | 0.7 |
